Entry source: paper PMC12040169

Each entry below carries its recorded viability at 28.5 h, 10 µM.
Procedure details: in vitro
Setup conditions: human, hela cells, % viability
Use % as the unit, but write only the number.

Worked set:
>  <Compound>
CC(C)(CC(=O)O)CC(=O)N1CCCC1c1nc(-c2ccccc2)c2ccccn12 (stereo not drawn)

>  <Unit tag>
%

>  <viability at 28.5 h, 10 µM>
98.8

$$$$
>  <Compound>
CC(=O)Nc1cccc(-n2nnnc2SCc2cnn(C)c2)c1

>  <Unit tag>
%

>  <viability at 28.5 h, 10 µM>
101

$$$$
>  <Compound>
Cc1cccc(N2C(=O)c3ccc(C(=O)OC(C(=O)c4ccccc4)c4ccccc4)cc3C2=O)c1 (stereo not drawn)

>  <Unit tag>
%

>  <viability at 28.5 h, 10 µM>
88.8

$$$$
>  <Compound>
Cc1ccc(N2C(=O)CC(Sc3ncccc3C(=O)O)C2=O)c(C)c1 (stereo not drawn)

>  <Unit tag>
%

>  <viability at 28.5 h, 10 µM>
91.9

$$$$
>  <Compound>
C[C@H]1[C@@H]2[C@@H](O)C([C@H](C)C(=O)NCc3ccccn3)CC[C@@]2(C)CC[C@@H]1NC(=O)C1CC1 (stereo partly drawn)

>  <Unit tag>
%

>  <viability at 28.5 h, 10 µM>
97.2

$$$$
>  <Compound>
O=C1NC2(CCc3ccccc31)CCN(C(=O)c1ccc(F)cc1)C2 (stereo not drawn)

>  <Unit tag>
%

>  <viability at 28.5 h, 10 µM>
102

$$$$
>  <Compound>
Cc1ccc(-c2csc3ncnc(SCc4nc5ccccc5[nH]4)c23)cc1

>  <Unit tag>
%

>  <viability at 28.5 h, 10 µM>
83.5

$$$$
>  <Compound>
O=C(c1ccccc1F)N1CCN(C(=O)[C@@H]2C[C@@H]3C=C[C@H]2C3)CC1

>  <Unit tag>
%

>  <viability at 28.5 h, 10 µM>
89.1

$$$$

Write down viability at 28.5 h, 10 µM measured for item "CC(=O)c1ccccc1NC(=O)CSCC(=O)O" 92.2

* * *

compounds and their reported viability at 28.5 h, 10 µM
Procedure details: in vitro
Setup conditions: human, hela cells, % viability
# output: bare number, implied unit %

>  <Compound>
CS(=O)(=O)Nc1nccnc1OC1CCN(CCCO)CC1

>  <Unit tag>
%

>  <viability at 28.5 h, 10 µM>
90.9

$$$$
>  <Compound>
CN(C)[C@@H]1CN(Cc2ccccc2O)C[C@H]1c1cn(C)c2ccccc12

>  <Unit tag>
%

>  <viability at 28.5 h, 10 µM>
88.3

$$$$
>  <Compound>
Cc1ccn(CCC(=O)NC(C)c2cccnc2)n1 (centres unmarked)

>  <Unit tag>
%

>  <viability at 28.5 h, 10 µM>
97.6

$$$$
>  <Compound>
CC1(CNC(=O)c2cc(-c3cccc(F)c3)no2)COC1

>  <Unit tag>
%

>  <viability at 28.5 h, 10 µM>
87.7

$$$$
>  <Compound>
O=C(CCCN1C(=O)/C(=C/c2ccc3c(c2)OCO3)SC1=S)Nc1ccc([N+](=O)[O-])cc1

>  <Unit tag>
%

>  <viability at 28.5 h, 10 µM>
105

$$$$

Entry "COc1ccc(CCNC(=O)c2cnc(-c3ccc(Cl)cc3)c(-c3cccc(CNC(C)=O)c3)c2)cc1OC" needs its viability at 28.5 h, 10 µM filled in; supply it. 95

Provide only the value of recorded viability at 28.5 h, 10 µM for "CC1(C)CC(=O)c2sc(NS(=O)(=O)c3sc(Cl)cc3Br)nc2C1" 109

Give the reported viability at 28.5 h, 10 µM for this compound. "O=C(Nc1ccc(OCc2nc3ccccc3s2)cc1)c1cccc(I)c1" 119

* * *

The reader will find reported viability at 28.5 h, 10 µM values listed item by item below.
Procedure details: in vitro
Setup conditions: human, hela cells, % viability
Express the result in % but write the number alone.

Answered cases to consult:
>  <Compound>
Cc1sc2ncn(CC(=O)NCCc3c[nH]cn3)c(=O)c2c1C

>  <Observed value>
99.3

$$$$
>  <Compound>
COc1ccccc1CN1CCC2(CCCNC2=O)CC1

>  <Observed value>
85.2

$$$$
>  <Compound>
O=C1CCCC[C@]2(CN(Cc3ccccc3)C[C@H]2c2cccnc2)N1

>  <Observed value>
106

$$$$
>  <Compound>
CCCCCNC(=O)N1CCN(CC(=O)OCC)CC1

>  <Observed value>
96.6

$$$$
>  <Compound>
O=C(C/C=N/OCc1ccccc1)c1sccc1Cl

>  <Observed value>
96

$$$$

Respond only with viability at 28.5 h, 10 µM recorded for CCOC(=O)CCCNC(=O)N1CCCC(C(=O)N(CC)CC)C1 (stereo not drawn) 92.3

Quote viability at 28.5 h, 10 µM reported for CC(=O)c1cccc(NC(=O)N(Cc2ccco2)CC2CCCO2)c1 (stereo not drawn) please. 104

Identify measured viability at 28.5 h, 10 µM associated with "CN(C)C[C@H]1CC[C@]2(CC1)CN(C(=O)C1CC1)Cc1ccccc1O2" 101

* * *

Procedure details: in vitro
Parameters: Viability of infected HeLa host cells, resazurin conversion, bulk resorufin fluorescence relative to DMSO
Setup conditions: human, hela cells; bulk resorufin, mean of 2
Measurement label: viability at 28.5 h, 10 µM (%)
Numbers only here, please. The scale is %.

# annotated cases, reported viability at 28.5 h, 10 µM shown
>  <Molecule>
CCc1ccc(S(=O)(=O)Nc2cc(SCC(=O)O)c(O)c3ccccc23)cc1 [CBK265580]

>  <Measurement label>
viability at 28.5 h, 10 µM

>  <Observed value>
81.9

$$$$
>  <Molecule>
O=C(Nc1cccc2c(NC(=O)N3CCCCC3)cccc12)N1CCCCC1 [CBK010775]

>  <Measurement label>
viability at 28.5 h, 10 µM

>  <Observed value>
84.5

$$$$
>  <Molecule>
OC(CN1CCOCC1)Cn1c(-c2ccccc2)c(-c2ccccc2)c2ccc3ccccc3c21 (stereo not shown) [CBK263996G]

>  <Measurement label>
viability at 28.5 h, 10 µM

>  <Observed value>
89.5

$$$$

Given O=C(NCc1ccc([N+](=O)[O-])cc1)c1cccnc1NCc1ccc2c(c1)OCO2 [CBK153436] , respond with its viability at 28.5 h, 10 µM. 109

Read off the recorded viability at 28.5 h, 10 µM for C[C@H](NC(=O)Cc1ccc(-c2ccccc2)cc1)c1nc2ccccc2[nH]1 [CBK296998] 100

Respond only with viability at 28.5 h, 10 µM recorded for COc1ccc(C2CC(=O)C=C(Nc3cc(Cl)ccc3O)C2)cc1 (stereo not shown) [CBK263542] 87.8

Give reported viability at 28.5 h, 10 µM value for O=C(Nc1ccc(F)c(F)c1)NC1CCC2CN(CCOc3ccccc3)CC2C1 (stereo not shown) [CBK083365T] 88.8

Supply measured viability at 28.5 h, 10 µM of O=C(O)c1[nH]c2ccccc2c1C(c1ccsc1)c1c(C(=O)O)[nH]c2ccccc12 [CBK267811] in your reply. 121

Please look at this molecule and report its viability at 28.5 h, 10 µM: COc1ccc([C@@]23CC[C@@H](Nc4nc(-c5ccc(Br)cc5)cs4)C[C@@H]2N(C)CC3)cc1OC [CBK036543] 109

Give recorded viability at 28.5 h, 10 µM. COc1ccc([C@@H]2CN(C)C[C@H]2NC(=O)Nc2ccc(Cl)c(Cl)c2)cc1OC [CBK081111] 88.4

Read off the recorded viability at 28.5 h, 10 µM for COc1ccc([C@H]2CN(Cc3ccccc3)[C@@H]3CCN(C(=O)Cc4ccccc4)C[C@H]23)cc1 [CBK286285] 104

Identify measured viability at 28.5 h, 10 µM corresponding to O=C(N/N=C\c1ccc([N+](=O)[O-])o1)c1nc(-c2ccccc2)cc(-c2ccccc2)n1 [CBK261958] 87.8

* * *

Procedure details: in vitro
Setup conditions: human, hela cells, % viability
Each record here notes measured viability at 28.5 h, 10 µM.
Respond with the bare value in %.

Solved cases (5 shown):
>  <Compound>
Cc1csc2c(C3CCCN(C(=O)c4cnn(C)c4)C3)nc(C)n12 (stereo not drawn)

>  <viability at 28.5 h, 10 µM, %>
98.5

$$$$
>  <Compound>
COc1ccc(C(C)C)cc1-c1nccnc1NCC1COC(C)(C)O1 (stereo not drawn)

>  <viability at 28.5 h, 10 µM, %>
101

$$$$
>  <Compound>
CCN(CCO)c1ccc(Nc2cc(-c3cc(C(F)(F)F)cc(C(F)(F)F)c3)ncn2)cc1

>  <viability at 28.5 h, 10 µM, %>
106

$$$$
>  <Compound>
Cc1ccc(O)c(CN[C@@H]2CCC(=O)N[C@H]2c2cc(F)cc(F)c2)c1

>  <viability at 28.5 h, 10 µM, %>
94

$$$$
>  <Compound>
Cc1ocnc1C(=O)Nc1nc2c(cc1C#N)CCC2

>  <viability at 28.5 h, 10 µM, %>
92.7

$$$$

Respond only with viability at 28.5 h, 10 µM recorded for CC(CC(=O)N1CCC(Oc2ccccc2F)CC1)n1cccn1 (stereo not drawn) 84.6

Consider the compound CC(Oc1ccccc1F)C(=O)N1CCCCC1CN(C)C (stereo not drawn) . State its measured viability at 28.5 h, 10 µM. 89.5

Please give the documented viability at 28.5 h, 10 µM of C[C@]1(CO)C2CC[C@H]3OC(=O)C[C@H]3[C@]2(C)CC[C@H]1OC(=O)Nc1ccccc1 (stereo partly drawn) 84.5

Give recorded viability at 28.5 h, 10 µM. "O=c1nc(C(F)(F)F)n2ccccc2n1" 97.2
